Values from patent US8183238B2

Run Description: Prodrug in vivo pharmacokinetics in monkeys (plasma, LC-MS-MS)
Parameters: species or system Monkey (Cynomolgus)
Experimental Context: Cynomolgus, cynomolgus monkey, plasma, po, 10 mg/kg, Example 4 in monkey plasma after oral Example 4 (10 mg/kg active); Monkey 1; read-out: AUC
Readout Kind: AUC (µg·h/mL)
The figure you give is taken to be in µg·h/mL; do not add the unit.

Q: Bench note: what AUC did N[C@H]1Cc2ccccc2N(O)C1=O show?
Ans: 0.184

====

Run Description: Prodrug in vivo pharmacokinetics in dogs (plasma, LC-MS-MS)
Parameters: species or system Dog (Beagle)
Experimental Context: Beagle, dog, plasma, po, 1 mg/kg, Example 72 in dog plasma after oral Example 72 (1 mg/kg active); Mean
Readout Kind: Tmax (min)
The figure you give is taken to be in min; do not add the unit.

Q: Bench note: what Tmax did CN(C)C(=O)ON1C(=O)[C@@H](N)Cc2cc(Oc3ccccc3)ccc21 show?
Ans: 45

====

Run Description: Prodrug in vivo pharmacokinetics in monkeys (plasma, LC-MS-MS)
Design: species or system Monkey (Cynomolgus)
Experimental Context: Cynomolgus, cynomolgus monkey, plasma, po, 3 mg/kg, Example 71 in monkey plasma after oral Example 71 (3 mg/kg active); Mean
Readout Kind: Cmax (ng/mL)
The figure you give is taken to be in ng/mL; do not add the unit.

Q: Bench note: what Cmax did Cl.N[C@H]1Cc2cc(Oc3ccccc3)ccc2N(O)C1=O [Example 71] show?
Ans: 53.4

====

Run Description: Prodrug in vivo pharmacokinetics in dogs (plasma, LC-MS-MS)
Parameters: species or system Dog (Beagle)
Experimental Context: Beagle, dog, plasma, po, 1 mg/kg, Example 72 in dog plasma after oral Example 72 (1 mg/kg active); Mean; read-out: AUC
Readout Kind: AUC (µg·h/mL)
The figure you give is taken to be in µg·h/mL; do not add the unit.

Q: Bench note: what AUC did CN(C)C(=O)ON1C(=O)[C@@H](N)Cc2cc(Oc3ccccc3)ccc21 [Example 72] show?
Ans: 0.562

====

Run Description: Prodrug in vivo pharmacokinetics in monkeys (plasma, LC-MS-MS)
Design: species or system Monkey (Cynomolgus)
Experimental Context: Cynomolgus, cynomolgus monkey, plasma, po, 10 mg/kg, Example 4 in monkey plasma after oral Example 4 (10 mg/kg active); Monkey 2
Readout Kind: Cmax

Q: Bench note: what Cmax did N[C@H]1Cc2ccccc2N(O)C1=O show?
Ans: 340 ng/mL

====

Entries and their measured pIC50 follow.
Tgt: human KAT II (hKAT II) enzyme (Homo sapiens)
Sequence (Q8N5Z0 30-425): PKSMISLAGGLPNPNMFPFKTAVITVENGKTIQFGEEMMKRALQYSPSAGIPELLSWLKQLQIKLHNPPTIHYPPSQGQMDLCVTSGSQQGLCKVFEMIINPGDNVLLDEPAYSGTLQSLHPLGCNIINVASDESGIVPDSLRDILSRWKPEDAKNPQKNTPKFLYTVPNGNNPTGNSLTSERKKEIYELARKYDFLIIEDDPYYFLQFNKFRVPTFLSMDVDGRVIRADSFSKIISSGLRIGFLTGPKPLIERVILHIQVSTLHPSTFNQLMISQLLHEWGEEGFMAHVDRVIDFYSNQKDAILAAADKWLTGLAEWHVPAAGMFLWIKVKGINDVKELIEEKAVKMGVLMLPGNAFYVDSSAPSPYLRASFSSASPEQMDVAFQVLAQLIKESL
Run Description: KAT II Inhibition Spectra Assay
Type: biochemical
Experimental Context: Table 6; hKAT II, decrease in OD370, 37° C., 15-20 h; read-out: KATII IC50
Answer as the number alone; pIC50 is minus log10 of concentration in mol/L.

Q: Bench note: what pIC50 did COc1cccc(Cc2cc3c(cc2OC)N(O)C(=O)[C@@H](N)C3)c1 [Example 125] show?
Ans: 7.76

# context switch: different molecule, same pIC50
Q: Bench note: what pIC50 did COc1cccc(Oc2cnc3c(c2)C[C@H](N)C(=O)N3O)c1 [Example 80] show?
Ans: 7.51

====

Run Description: Prodrug in vivo pharmacokinetics in monkeys (plasma, LC-MS-MS)
Parameters: species or system Monkey (Cynomolgus)
Experimental Context: Cynomolgus, cynomolgus monkey, plasma, po, 10 mg/kg, Example 4 in monkey plasma after oral Example 4 (10 mg/kg active); Monkey 4; read-out: AUC
Readout Kind: AUC (ng·h/mL)
The figure you give is taken to be in ng·h/mL; do not add the unit.

Q: Bench note: what AUC did N[C@H]1Cc2ccccc2N(O)C1=O show?
Ans: 159
